Organism: Rattus norvegicus
Experiment: Open TG-GATES - Regimen: Daily Repeat
Format: toxicity, organism-based, Sprague-Dawley
Parameters: regimen Daily Repeat, gender Male, age 6 weeks
Conditions: in vivo, po, 0 mg/kg, […], tissue Blood, route gavage, dose level Control, time 7 day
reported endpoint: Lym (%)

[
  {
    "compound": "Cc1nnc2n1-c1ccc(Cl)cc1C(c1ccccc1Cl)=NC2",
    "observed value": 76.4
  },
  {
    "compound": "CN1C(=O)CCS(=O)(=O)C1c1ccc(Cl)cc1 (stereo not drawn)",
    "observed value": 79.4
  },
  {
    "compound": "CCOc1ccc(NC(C)=O)cc1",
    "observed value": 78.6
  },
  {
    "compound": "CCCc1cc(=O)[nH]c(=S)[nH]1",
    "observed value": 77.8
  },
  {
    "compound": "Brc1ccccc1",
    "observed value": 78.4
  },
  {
    "compound": "CN/C(=N/CCSCc1nc[nH]c1C)NC#N",
    "observed value": 80
  },
  {
    "compound": "COC(=O)C1=C(C)NC(C)=C(C(=O)OC)C1c1ccccc1[N+](=O)[O-]",
    "observed value": 75.8
  },
  {
    "compound": "NC1=NC(=O)C(c2ccccc2)O1 (stereo not drawn)",
    "observed value": 75.4
  },
  {
    "compound": "O=C(OC[C@H]1O[C@@H](OC(=O)c2cc(O)c(O)c(OC(=O)c3cc(O)c(O)c(O)c3)c2)[C@H](OC(=O)c2cc(O)c(O)c(OC(=O)c3cc(O)c(O)c(O)c3)c2)[C@@H](OC(=O)c2cc(O)c(O)c(OC(=O)c3cc(O)c(O)c(O)c3)c2)[C@@H]1OC(=O)c1cc(O)c(O)c(OC(=O)c2cc(O)c(O)c(O)c2)c1)c1cc(O)c(O)c(OC(=O)c2cc(O)c(O)c(O)c2)c1",
    "observed value": 77.8
  },
  {
    "compound": "CN(C)CCC(c1ccc(Cl)cc1)c1ccccn1 (stereo not drawn)",
    "observed value": 78.6
  },
  {
    "compound": "CC(C)NNC(=O)c1ccncc1",
    "observed value": 82.4
  },
  {
    "compound": "Nc1c2c(nc3ccccc13)CCCC2",
    "observed value": 85
  },
  {
    "compound": "CNC(=C[N+](=O)[O-])NCCSCc1ccc(CN(C)C)o1",
    "observed value": 76.6
  }
]

====

Species: Rattus norvegicus
Test: Open TG-GATES - Regimen: Daily Repeat
Format: toxicity, organism-based, Sprague-Dawley
Set-up: regimen Daily Repeat, gender Male, age 6 weeks
Conditions: in vivo, po, 0 mg/kg, […], tissue Blood, route gavage, dose level Control, time 14 day
Here the recorded Ht is given for each entry.
reported endpoint: Ht (%)

[
  {
    "compound": "Brc1ccccc1",
    "observed value": 39.9
  },
  {
    "compound": "CCCc1cc(=O)[nH]c(=S)[nH]1",
    "observed value": 43.9
  },
  {
    "compound": "Cc1nnc2n1-c1ccc(Cl)cc1C(c1ccccc1Cl)=NC2",
    "observed value": 43.9
  },
  {
    "compound": "CN/C(=N/CCSCc1nc[nH]c1C)NC#N",
    "observed value": 43.5
  },
  {
    "compound": "Nc1c2c(nc3ccccc13)CCCC2",
    "observed value": 42.9
  },
  {
    "compound": "NC1=NC(=O)C(c2ccccc2)O1 (stereo unspecified)",
    "observed value": 39.7
  }
]
